Origin of values: patent US20260207654A1

molecules and their reported mean rank binding to CCL13
Biological target: UniProtKB Q99616
Sequence (Q99616 17-98, species assumed): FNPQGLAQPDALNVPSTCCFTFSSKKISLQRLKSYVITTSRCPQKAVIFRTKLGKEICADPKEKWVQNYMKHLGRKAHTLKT
Assay: Chemokine glycan microarray binding assay
Details: maximum RFU set as 100% binding, average across 2 glycan concentrations and 3 chemokine dilutions (n=6)

{"STRUCTURE_STRING": "NCCOCCO[C@@H]1O[C@@H](C(=O)O)[C@@H](O[C@@H]2O[C@@H](C(=O)O)[C@@H](OS(=O)(=O)O)[C@H](O)[C@H]2OS(=O)(=O)O)[C@H](O)[C@H]1OS(=O)(=O)O", "mean rank binding to CCL13 (%)": 94}
{"STRUCTURE_STRING": "NCCCO[C@@H]1O[C@@H](C(=O)O)[C@@H](O[C@H]2O[C@H](COS(=O)(=O)O)[C@@H](O[C@@H]3O[C@@H](C(=O)O)[C@@H](O[C@H]4O[C@H](COS(=O)(=O)O)[C@@H](O)[C@H](OS(=O)(=O)O)[C@H]4N)[C@H](O)[C@H]3O)[C@H](OS(=O)(=O)O)[C@H]2N)[C@H](O)[C@H]1O", "mean rank binding to CCL13 (%)": 69}
{"STRUCTURE_STRING": "NCCOCCO[C@@H]1O[C@@H](C(=O)O)[C@@H](O[C@@H]2O[C@@H](C(=O)O)[C@@H](O[C@@H]3O[C@@H](C(=O)O)[C@@H](OS(=O)(=O)O)[C@H](O)[C@H]3OS(=O)(=O)O)[C@H](O)[C@H]2OS(=O)(=O)O)[C@H](O)[C@H]1OS(=O)(=O)O", "mean rank binding to CCL13 (%)": 53}
{"STRUCTURE_STRING": "NCCOCCO[C@@H]1O[C@@H](C(=O)O)[C@@H](O[C@@H]2O[C@@H](C(=O)O)[C@@H](O[C@@H]3O[C@@H](C(=O)O)[C@@H](OS(=O)(=O)O)[C@H](O)[C@H]3O)[C@H](O)[C@H]2O)[C@H](O)[C@H]1O", "mean rank binding to CCL13 (%)": 72}

---

Item-by-item account of mean rank binding to CCL5
Biological target: CCL5 (Homo sapiens)
Sequence (P13501 24-91, species assumed): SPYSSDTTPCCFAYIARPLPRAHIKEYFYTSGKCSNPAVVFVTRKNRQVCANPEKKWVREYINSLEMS
Experiment: Chemokine glycan microarray binding assay
Conditions: maximum RFU set as 100% binding, average across 2 glycan concentrations and 3 chemokine dilutions (n=6)

{"MOLECULE": "CC(=O)NC1C(O)[C@H](O)C(COS(=O)(=O)O)O[C@@H]1O[C@@H]1C(C(=O)O)O[C@@H](O[C@@H]2C(COS(=O)(=O)O)O[C@H](O[C@@H]3C(C(=O)O)O[C@@H](OCCCN)C(O)C3O)C(NC(C)=O)C2O)C(O)C1O (stereo partly drawn) [Example 24]", "mean rank binding to CCL5": "24%"}
{"MOLECULE": "CC(=O)N[C@H]1[C@@H](O[C@H]2[C@H](O)[C@@H](O)[C@H](OCCCN)O[C@H]2C(=O)O)O[C@H](COP(=O)(O)O)[C@@H](O[C@@H]2O[C@@H](C(=O)O)[C@@H](O[C@H]3O[C@H](COP(=O)(O)O)[C@@H](O)[C@H](O)[C@H]3NC(C)=O)[C@H](O)[C@H]2O)[C@@H]1O [Example 26]", "mean rank binding to CCL5": "5%"}
{"MOLECULE": "NCCOCCO[C@@H]1O[C@@H](C(=O)O)[C@@H](O[C@@H]2O[C@@H](C(=O)O)[C@@H](OS(=O)(=O)O)[C@H](O)[C@H]2O)[C@H](O)[C@H]1O [Example 5]", "mean rank binding to CCL5": "15%"}
{"MOLECULE": "NCCOCCO[C@@H]1O[C@@H](C(=O)O)[C@@H](OS(=O)(=O)O)[C@H](O)[C@H]1OS(=O)(=O)O [Example 3]", "mean rank binding to CCL5": "1%"}
{"MOLECULE": "NCCOCCO[C@@H]1OC(C(=O)O)[C@@H](O)C(O)C1O (stereo partly drawn) [Example 1]", "mean rank binding to CCL5": "2%"}
{"MOLECULE": "NCCOCCO[C@@H]1O[C@@H](C(=O)O)[C@@H](OS(=O)(=O)O)[C@H](O)[C@H]1O [Example 2]", "mean rank binding to CCL5": "2%"}

---

mean rank binding to CXCL12 for assorted molecules
Biological target: CXCL12 (Homo sapiens, UniProt P48061)
Sequence (P48061 22-93, species assumed): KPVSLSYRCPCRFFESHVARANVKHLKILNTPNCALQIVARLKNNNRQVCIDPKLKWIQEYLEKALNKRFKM
Test: Chemokine glycan microarray binding assay
Conditions: maximum RFU set as 100% binding, average across 2 glycan concentrations and 3 chemokine dilutions (n=6)

{"MOLECULE": "NCCOCCO[C@@H]1OC(C(=O)O)[C@@H](O)C(O)C1O (stereo partly shown)", "mean rank binding to CXCL12 / %": 62}
{"MOLECULE": "NCCOCCO[C@@H]1O[C@@H](C(=O)O)[C@@H](OS(=O)(=O)O)[C@H](O)[C@H]1OS(=O)(=O)O", "mean rank binding to CXCL12 / %": 38}
{"MOLECULE": "CC(=O)NC1C(O)[C@H](O)C(CO)O[C@@H]1O[C@@H]1C(C(=O)O)O[C@@H](O[C@@H]2C(CO)O[C@H](O[C@@H]3C(C(=O)O)O[C@@H](OCCCN)C(O)C3O)C(NC(C)=O)C2O)C(O)C1O (stereo partly shown)", "mean rank binding to CXCL12 / %": 16}
{"MOLECULE": "CC(=O)N[C@H]1[C@@H](O[C@H]2[C@H](O)[C@@H](OP(=O)(O)O)[C@H](OCCCN)O[C@H]2C(=O)O)O[C@H](COP(=O)(O)O)[C@@H](O[C@@H]2O[C@@H](C(=O)O)[C@@H](O[C@H]3O[C@H](COP(=O)(O)O)[C@@H](O)[C@H](O)[C@H]3NC(C)=O)[C@H](O)[C@H]2OP(=O)(O)O)[C@@H]1O", "mean rank binding to CXCL12 / %": 59}
{"MOLECULE": "NCCCO[C@@H]1O[C@@H](C(=O)O)[C@@H](O[C@H]2O[C@H](CO)[C@@H](O[C@@H]3O[C@@H](C(=O)O)[C@@H](O[C@H]4O[C@H](CO)[C@@H](O)[C@H](OS(=O)(=O)O)[C@H]4N)[C@H](O)[C@H]3O)[C@H](OS(=O)(=O)O)[C@H]2N)[C@H](O)[C@H]1O", "mean rank binding to CXCL12 / %": 84}
{"MOLECULE": "NCCOCCO[C@@H]1O[C@@H](C(=O)O)[C@@H](O[C@@H]2O[C@@H](C(=O)O)[C@@H](O[C@@H]3O[C@@H](C(=O)O)[C@@H](O[C@@H]4O[C@@H](C(=O)O)[C@@H](OS(=O)(=O)O)[C@H](O)[C@H]4O)[C@H](O)[C@H]3O)[C@H](O)[C@H]2O)[C@H](O)[C@H]1O", "mean rank binding to CXCL12 / %": 82}
{"MOLECULE": "NCCOCCO[C@@H]1OC(C(=O)O)[C@@H](O[C@@H]2OC(C(=O)O)[C@@H](O[C@@H]3OC(C(=O)O)[C@@H](O)C(O)C3O)C(O)C2O)C(O)C1O (stereo partly shown)", "mean rank binding to CXCL12 / %": 92}
{"MOLECULE": "NCCOCCO[C@@H]1OC(C(=O)O)[C@@H](O[C@@H]2OC(C(=O)O)[C@@H](O)C(O)C2O)C(O)C1O (stereo partly shown)", "mean rank binding to CXCL12 / %": 56}
{"MOLECULE": "NCCCO[C@@H]1O[C@@H](C(=O)O)[C@@H](O[C@H]2O[C@H](COS(=O)(=O)O)[C@@H](O[C@@H]3O[C@@H](C(=O)O)[C@@H](O[C@H]4O[C@H](COS(=O)(=O)O)[C@@H](O)[C@H](OS(=O)(=O)O)[C@H]4N)[C@H](O)[C@H]3O)[C@H](OS(=O)(=O)O)[C@H]2N)[C@H](O)[C@H]1O", "mean rank binding to CXCL12 / %": 80}
{"MOLECULE": "NCCCO[C@@H]1OC(C(=O)O)[C@@H](O[C@H]2OC(COS(=O)(=O)O)[C@@H](O[C@@H]3OC(C(=O)O)[C@@H](O[C@H]4OC(COS(=O)(=O)O)[C@@H](O)C(O)C4N)C(O)C3OS(=O)(=O)O)C(O)C2N)C(O)C1OS(=O)(=O)O (stereo partly shown)", "mean rank binding to CXCL12 / %": 79}

---

Biological target: CXCL8 (Homo sapiens)
Sequence (P10145 21-99): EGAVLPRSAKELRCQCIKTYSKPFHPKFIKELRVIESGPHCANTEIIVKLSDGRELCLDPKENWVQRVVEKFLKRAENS
Assay: Chemokine glycan microarray binding assay
Conditions: maximum RFU set as 100% binding, average across 2 glycan concentrations and 3 chemokine dilutions (n=6)

{"COMPOUND": "NCCOCCO[C@@H]1O[C@@H](C(=O)O)[C@@H](OS(=O)(=O)O)[C@H](O)[C@H]1OS(=O)(=O)O", "mean rank binding to CXCL8 (%)": 5}
{"COMPOUND": "NCCOCCO[C@@H]1O[C@@H](C(=O)O)[C@@H](O[C@@H]2O[C@@H](C(=O)O)[C@@H](O[C@@H]3O[C@@H](C(=O)O)[C@@H](OS(=O)(=O)O)[C@H](O)[C@H]3OS(=O)(=O)O)[C@H](O)[C@H]2OS(=O)(=O)O)[C@H](O)[C@H]1OS(=O)(=O)O", "mean rank binding to CXCL8 (%)": 71}
{"COMPOUND": "NCCCO[C@@H]1OC(C(=O)O)[C@@H](O[C@H]2OC(COS(=O)(=O)O)[C@@H](O[C@@H]3OC(C(=O)O)[C@@H](O[C@H]4OC(COS(=O)(=O)O)[C@@H](O)C(O)C4N)C(O)C3OS(=O)(=O)O)C(O)C2N)C(O)C1OS(=O)(=O)O (some centres unmarked)", "mean rank binding to CXCL8 (%)": 79}
{"COMPOUND": "CC(=O)NC1C(O)[C@H](O)C(COS(=O)(=O)O)O[C@@H]1O[C@@H]1C(C(=O)O)O[C@@H](O[C@@H]2C(COS(=O)(=O)O)O[C@H](O[C@@H]3C(C(=O)O)O[C@@H](OCCCN)C(OS(=O)(=O)O)C3O)C(NC(C)=O)C2O)C(OS(=O)(=O)O)C1O (some centres unmarked)", "mean rank binding to CXCL8 (%)": 53}
{"COMPOUND": "NCCOCCO[C@@H]1O[C@@H](C(=O)O)[C@@H](OS(=O)(=O)O)[C@H](O)[C@H]1O", "mean rank binding to CXCL8 (%)": 12}
